Source of measurements: ChEMBL document CHEMBL4814075

target: Acetyl-CoA carboxylase 1 (Homo sapiens, UniProt Q13085); assay: Inhibition of ACC1 in human HepG2 cells assessed as lipid content using 13C-labelled acetate as substrate incubated for 1 hr followed by substrate addition and measured after 24 hrs by QTOF mass spectrometer
Measurement Label: EC50 (nM)
The reply should contain only the number, in nM.

Use the examples below as a reference point.
Cc1c(-n2nccn2)sc2c1c(=O)n(C1(C(=O)NS(=O)(=O)C3(C)CC3)CC1)c(=O)n2C[C@H](O[C@@H]1C[C@H]2CC[C@@H](C1)O2)c1cc(F)ccc1OC(F)F
0.9
COc1ccccc1[C@H](Cn1c(=O)n(C(C)(C)C(=O)NS(=O)(=O)C2(C)CC2)c(=O)c2c(C)c(-n3nccn3)sc21)O[C@@H]1C[C@H]2CC[C@@H](C1)O2
1
COc1ccccc1[C@H](Cn1c(=O)n([C@H](C)C(=O)NS(=O)(=O)C2(C)CC2)c(=O)c2c(C)c(-c3ncco3)sc21)O[C@@H]1C[C@H]2CC[C@@H](C1)O2
1

Problem: Name the reported EC50 value associated with the molecule COc1ccccc1[C@H](Cn1c(=O)n(C(C)(C)C(=O)NS(=O)(=O)C2(C)CC2)c(=O)c2c(C)c(-c3ncco3)sc21)O[C@@H]1C[C@H]2CC[C@@H](C1)O2
Solution: 1

Problem: Using the record for COc1ccccc1[C@H](Cn1c(=O)n(C2(C(=O)NS(=O)(=O)C3(C)CC3)CC2)c(=O)c2c(C)c(-n3nccn3)sc21)O[C@@H]1C[C@H]2CC[C@@H](C1)O2 , report its EC50.
Solution: 1

Problem: Requested field: EC50. Item: COc1ccc(F)cc1[C@H](Cn1c(=O)n(C(C)(C)C(=O)NS(=O)(=O)C2(C)CC2)c(=O)c2c(C)c(-n3nccn3)sc21)O[C@@H]1C[C@H]2CC[C@@H](C1)O2
Solution: 0.3
